Value source: ChEMBL document CHEMBL4651341

RUN_DESCRIPTION: Concentration required to kill 50% HepG2 cells as detected by MTT staining
Assay type: toxicity, cell-based
EXPERIMENTAL_CONDITIONS: homo sapiens, read-out: TC50 (the source's name)
READOUT_KIND: CC50 (µM)
The reply should be a number in µM, with the unit left off.

CC(C)c1nn2cnc(-c3cccc(C(F)(F)F)c3)cc2c1-c1c(F)cc(O)cc1F
8.4
Oc1cc(F)c(-c2c(C3CC3)nc3cnc(-c4ccc(F)c(S(F)(F)(F)(F)F)c4)cn23)c(F)c1
10.1
CC(C)c1nc2cnc(-c3ccc(F)c(C(F)(F)F)c3)nc2n1-c1c(F)cc(O)cc1F
4.8
CC(C)c1nc2cnc(-c3cccc(S(F)(F)(F)(F)F)c3)cn2c1-c1c(F)cc(O)cc1F
6.6
Fc1ccc(-c2cn3c(-c4ccc5[nH]ncc5c4F)c(C(F)(F)F)nc3cn2)cc1C1CCC1
6.09

## Task # query: CC50 of entry Fc1ccc(-c2cn3c(-c4ccc5[nH]ncc5c4F)c(C4CC4)nc3cn2)cc1S(F)(F)(F)(F)F
## Result 14.8

## Task # query: CC50 of entry Oc1cc(F)c(-c2c(C3CC3)nc3cnc(-c4ccc(F)c(C(F)(F)C(F)(F)F)c4)cn23)c(F)c1
## Result 9.4

## Task # query: CC50 of entry CCc1nc2cnc(-c3ccc(F)c(C(F)(F)C(F)(F)F)c3)cn2c1-c1c(F)cc(O)cc1F
## Result 7.23

## Task # query: CC50 of entry CCc1nc2cnc(-c3ccc(F)c(C(F)(F)F)c3)cn2c1-c1ccc2[nH]ncc2c1F
## Result 13.1

## Task # query: CC50 of entry CS(=O)(=O)c1ccc(-c2cnc3ccc(-c4cccc(S(C)(=O)=O)c4)nn23)cc1
## Result 11.9

## Task # query: CC50 of entry CC(C)Oc1cccc(-c2cn3c(-c4ccc5[nH]ncc5c4F)c(C(F)(F)F)nc3cn2)c1
## Result 13.2

* * *

RUN_DESCRIPTION: Percentage of parent compound remaining after incubation for 30 minutes with cyropreserved mouse hepatocytes at a concentration of 1uM compound and […], determined by LCMS
Assay type: ADME, tissue-based, Hepatocyte
EXPERIMENTAL_CONDITIONS: cryopreserved mouse hepatocytes, read-out: Stability
The compounds listed here are annotated with their remaining at 0.5 h, 1 µM.
The reply should be a number in %, with the unit left off.

Worked set:
COc1ccc(-c2c(C(C)C)nc3cnc(-c4cccc(C(F)(F)F)c4)cn23)cc1OP(=O)(O)O
51.1
Cc1nc2cnc(-c3cccc(C(F)(F)F)c3)cn2c1-c1c(F)cc(O)cc1F
42.3
COc1ccc(-c2c(C)nn3cnc(-c4cccc(C(F)(F)F)c4)cc23)cc1O
45.1
COc1ccc(-c2c(C(C)C)nc3cnc(-c4ccc(F)c(C(F)(F)F)c4)cn23)cc1O
54.5
CC(C)c1nc2cnc(-c3cccc(C(F)(F)F)c3)cn2c1-c1ccc(OP(=O)(O)O)cc1F
39.6
COc1ccc(-c2c(C(F)(F)F)nc3cnc(-c4cccc(C(F)(F)C(F)(F)F)c4)cn23)cc1O
75.3
Oc1cc(F)c(-c2cnc3cnc(-c4cccc(C(F)(F)F)c4)cn23)c(F)c1
74.1
Cc1nc2cnc(-c3cccc(C(F)(F)F)c3)cn2c1-c1ccc(O)cc1F
31.5

## Task # query: remaining at 0.5 h, 1 µM of entry Oc1ccc(-c2c(C(F)(F)F)nc3cnc(-c4cccc(C(F)(F)F)c4)cn23)c(F)c1
## Result 58.7

## Task # query: remaining at 0.5 h, 1 µM of entry COc1ccc(-c2c(C(C)C)nc3cnc(-c4cccc(C(F)(F)F)c4)cn23)cc1O
## Result 36.2

## Task # query: remaining at 0.5 h, 1 µM of entry Oc1ccc(-c2cnn3ccc(-c4cccc(C(F)(F)F)c4)cc23)c(F)c1
## Result 50.9

## Task # query: remaining at 0.5 h, 1 µM of entry CCc1nc2cnc(-c3cccc(C(F)(F)F)c3)cn2c1-c1ccc(O)cc1F
## Result 39

* * *

RUN_DESCRIPTION: Concentration of drug in plasma at 24h following oral drug adminstration at given dose. Determined by LCMS/MS
Format: ADME, organism-based
EXPERIMENTAL_CONDITIONS: CD1, mouse
READOUT_KIND: concentration at 24 h (ng/mL)
The reply should be a number in ng/mL, with the unit left off.

Fc1ccc(-c2cn3c(-c4ccc5[nH]ncc5c4F)c(C4CC4)nc3cn2)cc1C(F)(F)F
60.4

## Task # query: concentration at 24 h of entry CCc1nc2cnc(-c3ccc(F)c(C(F)(F)F)c3)cn2c1-c1ccc2[nH]ncc2c1F
## Result 50.5

## Task # query: concentration at 24 h of entry CCc1nc2cnc(-c3ccc(F)c(C(F)(F)C(F)(F)F)c3)cn2c1-c1c(F)cc(O)cc1F
## Result 10.4

## Task # query: concentration at 24 h of entry Oc1cc(F)c(-c2c(C3CC3)nc3cnc(-c4ccc(F)c(C(F)(F)F)c4)cn23)c(F)c1
## Result 460

* * *

RUN_DESCRIPTION: Solubility at 25 degC of compound (diluted from DMSO) in PBS at pH 7.4 determined after 24h (1h sonication, 22h shaking, 1h sonication) by LCMS/MS
Format: physicochemical
READOUT_KIND: solubility kinetic at 24 h (µM)
The reply should be a number in µM, with the unit left off.

Fc1ccc(-c2cn3c(-c4ccc5[nH]ncc5c4F)c(C(F)(F)F)nc3cn2)cc1OC(F)(F)F
0.785
COc1ccc(-c2c(C)nn3cnc(-c4cccc(C(F)(F)F)c4)cc23)cc1O
29.8
Cc1nc2cnc(-c3ccc(F)c(C(F)(F)F)c3)cn2c1-c1c(F)cc(O)cc1F
1.11
Cc1nc2cnc(-c3cccc(C(F)(F)F)c3)cn2c1-c1c(F)cc(O)cc1F
1.73

## Task # query: solubility kinetic at 24 h of entry Cc1nc2cnc(-c3ccc(F)c(C(F)(F)C(F)(F)F)c3)cn2c1-c1c(F)cc(O)cc1F
## Result 2.43

## Task # query: solubility kinetic at 24 h of entry Cc1nc2cnc(-c3cccc(C(F)(F)C(F)(F)F)c3)cn2c1-c1c(F)cc(O)cc1F
## Result 2.33

## Task # query: solubility kinetic at 24 h of entry CCc1nc2cnc(-c3cccc(C(F)(F)F)c3)cn2c1-c1ccc(OC)c(O)c1
## Result 0.672

## Task # query: solubility kinetic at 24 h of entry COc1cc(-c2c(C(C)C)nc3cnc(-c4cccc(C(F)(F)F)c4)cn23)cc2cn[nH]c12
## Result 0.643

## Task # query: solubility kinetic at 24 h of entry Fc1c(-c2c(C(F)(F)F)nc3cnc(-c4ccnc(C(F)(F)F)c4)cn23)ccc2[nH]ncc12
## Result 2.95

## Task # query: solubility kinetic at 24 h of entry Fc1ccc(-c2cn3c(-c4ccc5[nH]ncc5c4F)c(C4CC4)nc3cn2)cc1C(F)(F)F
## Result 1.42

## Task # query: solubility kinetic at 24 h of entry CCc1nc2cnc(-c3ccc(F)c(C(F)(F)C(F)(F)F)c3)cn2c1-c1c(F)cc(O)cc1F
## Result 0.742

* * *

The molecules listed here are annotated with their CC50.
RUN_DESCRIPTION: Concentration required to kill 50% MRC-5 cells as detected by Alamar blue staining
Type: toxicity, cell-based, MRC5
EXPERIMENTAL_CONDITIONS: homo sapiens, read-out: TC50 (the source's name)
The reply should be a number in µM, with the unit left off.

Worked set:
COc1ccc(-c2nnc3ccc(-c4cccc(C(C)C)c4)cn23)cc1
40.8
COc1ccc(-c2cnc3cnc(-c4cccc(C(C)C)c4)cn23)cc1OC
27.8
CCOc1cccc(-c2cn3c(-c4ccc(OC)cc4)cnc3cn2)c1
37.7
COc1ccc(-c2cnc3cnc(-c4cccc(OC(C)C)c4)cn23)cc1OC
28.7
Cc1nc2cnc(-c3cccc(C(F)(F)F)c3)cn2c1-c1ccc(O)cc1F
18.7

## Task # query: CC50 of entry COc1ccc(-c2cnc3ccc(-c4cccc(C(C)C)c4)nn23)cc1O
## Result 11.3

## Task # query: CC50 of entry CC(C)c1cccc(-c2cn3c(-c4ccc(O)cc4F)cnc3cn2)c1
## Result 11.1

## Task # query: CC50 of entry COc1ccc(-c2cnc3cnc(-c4cccc(C(C)C)c4)cn23)cc1
## Result 9.04

## Task # query: CC50 of entry CCc1nc2cnc(-c3cccc(C(F)(F)F)c3)cn2c1-c1ccc(O)cc1F
## Result 17.5

## Task # query: CC50 of entry CCc1cccc(-c2cn3c(-c4ccc(OC)c(OC)c4)cnc3cn2)c1
## Result 29.9
